system: NOMO1; experiment: cell viability relative to DMSO control; higher = less cytotoxic; settings: HPLM + 10% dialyzed FBS; 48 h; 0.00234 µM
cell viability values by entry

{"columns": ["compound", "cell viability, %"],
 "data": [
  ["CCCNC(=O)Nc1ccc(Oc2ncnc3cc(OC)c(OC)cc23)cc1Cl", 98],
  ["CCOC(=O)C(C)OC1=CC=CC2=C1\\C=C/N(CC(=O)NC3=CC=C4OCCOC4=C3)C2=O (stereo not given)", 96.6],
  ["CC(C)OC(=O)[C@H](C)N[P@](=O)(OC[C@H]1O[C@@H](N2\\C=C/C(=O)NC2=O)[C@](C)(F)[C@@H]1O)OC3=CC=CC=C3", 125],
  ["O=P(O)(O)C(O)(Cn1ccnc1)P(=O)(O)O", 126],
  ["NC(=O)c1ccc(N(C(N)=O)c2c(F)cccc2F)nc1-c1ccc(F)cc1F", 103]
]}
